Numbers sourced from patent US20160200799A1.

For each of the binders below, state its HI activity.
Target: Influenza virus A/Brisbane/59/2007 (H1N1) (Influenza A virus A/Brisbane/59/2007 (H1N1))
Experiment: cell-based or functional assay

Q: Value lookup for HI activity; key = Group 80 representative clone F083-373, Fab-PP-type antibody (Fab, V domains shown) VH: QVQLVQSGADVKKPGSSVRVSCKASGRTFGNYAISWVRQAPGQGLEWMGGITPIFGAANYAQKFQGRVTISADLSTTMVYMDLSSLRSDDTAFYYCAGHPTYYYGSPMDYWGQGTLVTVSS VL: EIVLTQSPSSLSASVGDRVTITCRASQSIATYLNWYQQKPGKAPNLLIYAASNLQSGVPSRFSGSGSGTDFTLTISSLQPEDFATYVCLQSYSATLTFGGGTKVEIK
A: > 160 µg/mL

Q: Follow-up item: Group 54 representative clone F083-354, Fab-PP-type antibody (Fab, V domains shown) VH: QVQLVQSGSEVKKPGSSVKVSCKASGGIFNSYGISWVRQAPGQGLEWMGGILAIFGTTNYAQKFQGRVTITADDSSKTVYMELSSLTSEDTAVYYCARGSTYYSSYFDQWGQGTLVTVSS VL: DIQMTQSPSSLSASVGDRVTITCRASQGIRNSLAWYQQKPGQVPKLLIYSATTLRSGVPYRFSGSGSGTDFTLTISGLQPEDVGTYFCHRYDSAPLTFGGGTRVALK
A: > 160 µg/mL

Q: Also Group 47 representative clone F083-308, Fab-PP-type antibody (Fab, V domains shown) VH: QVQLVQSGAEVKKPGSSVKVSCKASGGIFRSHAISWVRQAPGQGLEWMGGIIAIFGTTHYAQQFQGRVTITADESTSTVYMELSTLRSEDTAVYYCARGPNYFESYFDNWGQGTLVTVSS VL: EIVLTQSPATLSLSPGERATLSCRASQTISSYLAWYQQKPGQAPRLLIYGASNRATGIPARFSGSGSGTDFTLTINSLEPEDFAVYYCQQRSSWPPITFGQGTRLEIK , if possible.
A: > 160 µg/mL

Q: Next: Group 65 representative clone F083-366, Fab-PP-type antibody (Fab, V domains shown) VH: QVQLVQSGSEVKKPGSSVKVSCKASRGIFSSYAISWVRQAPGQGLEWMGAVIPMFGTLKYAENFQGRITISADKSMSAAYMELSSLRSEDTAVYYCARNYYGSGTYFNDAFDIWGQGTMVTVSS VL: QSVLTQPPSGSGAPGQRVTISCTGGNSNIGAGYDVNGYQQLPGKAPKLLIYGNNNRPSGVPDRFSGSKSGTSASLAITGLQVEDEAHYYCQSYDNGLSGSVFGGGTQLTVLG
A: > 160 µg/mL

Q: // next record Group 63 representative clone F083-336, Fab-PP-type antibody (Fab, V domains shown) VH: QVQLQQSGAEVKQPGSSVKVSCKASGGIFRSNAISWVRQAPGQGLEWMGGIVALFGTANYAQKFQGRVTITADESTSTVYMELSSLRSEDTARYYCARNSGYHISGFYLDYWGQGTLVTVSS VL: EIVLTQSPSSLSASVGDRVTITCRASQGISNYLAWYQQRPGKVPKLLIYTASTLLSGVPSRFSGGGSGTDYTLTISSLQPEDVATYYCQEYKSVPLTFGPGTKVEIK
A: > 160 µg/mL

Q: Quick one: Group 37 representative clone F083-311, Fab-PP-type antibody (Fab, V domains shown) VH: QVQLVQSGSEVKKPGSSVKVSCKASGGIFRTNAISYVRQAPGQGLEWMGGITAIFGTPNYAQKFQGRVTIIADESTSTVYMELGSLTSEDTAVYYCATSGTYYVSYFDSWGQGTLVTVSS VL: DIVMTQSPGTLTLSPGERATLSCRASQSLYSSHLAWYQQKPGQPPRLLIYGASTRAPGTPDRFSGSGSGTDFTLTITALDPEDSAVYYCQQYGSSPITFGQGTRLEIK
A: > 160 µg/mL
